Catalogue of compounds with associated IC50
target.under.test: hERG (Homo sapiens)
Sequence (Q12809 whole entry): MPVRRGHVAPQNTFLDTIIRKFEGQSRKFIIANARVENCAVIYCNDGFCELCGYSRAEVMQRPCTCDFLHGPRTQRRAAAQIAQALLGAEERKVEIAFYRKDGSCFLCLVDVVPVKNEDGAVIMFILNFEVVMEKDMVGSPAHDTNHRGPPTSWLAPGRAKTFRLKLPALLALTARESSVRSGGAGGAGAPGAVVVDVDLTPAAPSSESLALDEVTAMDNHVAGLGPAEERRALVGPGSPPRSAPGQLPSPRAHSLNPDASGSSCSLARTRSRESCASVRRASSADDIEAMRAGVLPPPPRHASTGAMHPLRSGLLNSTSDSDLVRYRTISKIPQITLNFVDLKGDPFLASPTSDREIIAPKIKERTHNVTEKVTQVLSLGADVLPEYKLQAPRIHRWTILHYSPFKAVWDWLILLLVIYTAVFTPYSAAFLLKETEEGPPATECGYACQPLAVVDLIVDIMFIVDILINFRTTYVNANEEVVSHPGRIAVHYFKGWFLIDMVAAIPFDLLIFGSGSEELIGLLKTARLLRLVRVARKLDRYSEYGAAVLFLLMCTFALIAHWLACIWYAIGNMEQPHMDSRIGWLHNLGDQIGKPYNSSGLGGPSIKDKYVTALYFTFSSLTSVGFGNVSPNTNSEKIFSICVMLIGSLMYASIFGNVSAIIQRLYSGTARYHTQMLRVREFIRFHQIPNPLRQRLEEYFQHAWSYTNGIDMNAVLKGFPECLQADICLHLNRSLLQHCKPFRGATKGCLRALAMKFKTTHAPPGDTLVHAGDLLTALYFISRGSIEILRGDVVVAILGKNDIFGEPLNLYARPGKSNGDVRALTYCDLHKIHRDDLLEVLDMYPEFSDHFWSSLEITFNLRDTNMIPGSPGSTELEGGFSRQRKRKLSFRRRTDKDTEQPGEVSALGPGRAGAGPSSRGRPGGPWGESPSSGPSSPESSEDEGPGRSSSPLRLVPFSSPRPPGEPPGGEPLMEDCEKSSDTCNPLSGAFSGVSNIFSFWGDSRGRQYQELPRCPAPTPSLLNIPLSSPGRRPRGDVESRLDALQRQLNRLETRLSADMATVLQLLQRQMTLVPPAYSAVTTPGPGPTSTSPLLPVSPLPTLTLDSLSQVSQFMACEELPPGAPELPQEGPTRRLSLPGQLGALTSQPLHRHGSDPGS
assay.remarks: cell-based
stated.conditions: (-LOG10(IC50), µM)
Counter-ions that a name gives are not always drawn.
measured.endpoint: IC50

>>> print(df.to_string())
                                    compound  test_value
 0    O=C1CN=C(c2ccccc2)c2cc(Cl)ccc2N1CC1CC1       23 µM
 1  CCCCCCCCCCCCCC[N+](C)(C)C [Myristyltrimethylammonium chloride]       15 µM
 2  OCCN1CCN(CC/C=C2/c3ccccc3Sc3ccc(C(F)(F)F)cc32)CC1 [cis-Flupentixol]     1.69 µM
 3  COC(=O)[C@H]1[C@H]2C[C@@H]3c4[nH]c5cc(OC)ccc5c4CCN3C[C@H]2C[C@@H](OC(=O)/C=C/c2ccc(O)c(OC)c2)[C@@H]1OC     1.57 µM
 4                   CCCCCCCCCCCCc1ccc(O)cc1     19.5 µM
 5  CN(C)c1ccc(C(=C2C=CC(=[N+](C)C)C=C2)c2ccccc2)cc1 [Malachite green]     4.25 µM
 6  COC(=O)[C@@H]1[C@H]2C[C@H]3c4[nH]c5ccccc5c4CCN3C[C@@H]2CC[C@@H]1O     23.9 µM
 7  CC(C)(Cc1c[nH]c2ccccc12)NCC(O)COc1ccccc1C#N (stereo not shown)     8.49 µM
 8      CN(C/C=C/C#CC(C)(C)C)Cc1cccc2ccccc12     9.52 µM
 9                 CCCCCCCCCCCCn1cc[n+](C)c1      4.2 µM
10  Clc1ccc(C(Cn2ccnc2)OCc2ccc(Sc3ccccc3)cc2)c(Cl)c1 (stereo not shown)     12.5 µM
11  c1ccc2c(c1)CCc1ccccc1N2 [10,11-Dihydro-5H-dibenz[b,f]azepine]     19.7 µM
12  CN1CCCN=C1COC(=O)C(O)(c1ccccc1)C1CCCCC1 (stereo not shown) [Oxyphencyclimine hydrochloride]     5.15 µM
13  C[C@]12CC[C@H]3[C@@H](CCC4=CC(=O)CC[C@@H]43)[C@@H]1CC[C@@H]2OC(=O)CCc1ccccc1 [Nandrolone phenpropionate]     12.5 µM
14  ClC1=C(Cl)C2(Cl)C3C(Cl)C=CC3C1(Cl)C2(Cl)Cl (stereo not shown)       31 µM
15  CN1CCC(=C2c3ccccc3Sc3ccccc32)CC1 [Pimethixene maleate]     9.89 µM
16  O=C1OC(CCN2CCCCC2)OC1(c1ccccc1)c1ccccc1 (stereo not shown) [Pipoxolan hydrochloride]     1.25 µM
17  Cc1[nH]cnc1C[C@H]1CCc2c(C)c3ccccc3n2C1=O [Fabesetron hydrochloride]     7.01 µM
18  Cc1c(OCC(F)(F)F)ccnc1C[S+]([O-])c1nc2ccccc2[nH]1 (stereo not shown)     43.6 µM
19  Clc1ccc(C(c2ccccc2Cl)C(Cl)(Cl)Cl)cc1 (stereo not shown)     21.5 µM
20  CCOCCn1c(N2CCCN(C)CC2)nc2ccccc21 [Emedastine difumarate]     6.24 µM
21  CCOCn1c(-c2ccc(Cl)cc2)c(C#N)c(Br)c1C(F)(F)F     15.5 µM
22  COc1cc(C(C)=O)ccc1OCCCN1CCC(c2noc3cc(F)ccc23)CC1      1.4 µM
23  CCCCOC(=O)C(C)Oc1ccc(Oc2ccc(C(F)(F)F)cn2)cc1 (stereo not shown)     23.2 µM
24  O=C1C2(Cl)C3(Cl)C4(Cl)C(Cl)(Cl)C5(Cl)C3(Cl)C1(Cl)C5(Cl)C24Cl (stereo not shown)     12.7 µM
25  COc1ccc(C(=O)CC(=O)c2ccc(C(C)(C)C)cc2)cc1     21.3 µM
26  O=C1OC2(c3ccccc31)c1ccc(O)c(Br)c1Oc1c2ccc(O)c1Br     34.7 µM
27  CN1C(=O)[C@@H](NC(=O)c2cc3ccccc3[nH]2)N=C(c2ccccc2)c2ccccc21 [Devazepide]     9.52 µM
28  COc1ccc(CN(CCN(C)C)c2ccccn2)cc1 [Pyrilamine maleate]     20.9 µM
29                 CCCCCCCCn1sc(Cl)c(Cl)c1=O     16.1 µM
30               CC(C)(C)CC(C)(C)c1ccc(O)cc1     21.3 µM
31  Cc1cc(C(C)(C)CC(C)(C)C)ccc1OCCOCC[N+](C)(C)Cc1ccccc1 [Methylbenzethonium chloride]    0.756 µM
32                    O=C1C=CC(=O)N1c1ccccc1     50.9 µM
33  CC(=O)O[C@@H]1CC2C3CCc4cc(OC(=O)c5ccccc5)ccc4C3CCC2(C)[C@H]1OC(C)=O (stereo partly shown) [Estriol benzoate diacetate]     5.35 µM
